Molecular target: T1, 4H3940-AA
T1 chain: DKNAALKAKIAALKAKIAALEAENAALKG
Assay: two-hybrid library CCmax;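 further: natural log of median RNA to DNA barcode read ratio; higher means stronger binding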
Conditions: mean of both orientations
In plain terms, low interaction score, meaning strictly below -0.9, gives y, and everything else gives n.

Enquiry: Is interaction score strictly under -0.9 for the entry DENAALEAKIAALKAEIAALEAKIAALKG [4H1350-AA] ?
Return: n

Enquiry: Just wondering, is interaction score of DKNAALEAEIAALEAKNAALKAKIAALKG [4H3134-AA] below -0.9?
Return: y

Enquiry: Lab note: interaction score threshold -0.9. Does this binder come in strictly under it? DEIAALEAKNAALEAEIAALEAKIAALKG [4H390-AA]
Return: n

Enquiry: hey, is interaction score for DEIAALEAENAALKAKIAALKAEIAALEG [4H233-AA] lower than -0.9 or not?
Return: y

Enquiry: Is -0.9 strictly greater than the binder's reported interaction score? binder: DKIAALEAENAALEAEIAALKAENAALEG [4H2187-AA]
Return: y

Enquiry: Say whether its interaction score is strictly beneath -0.9. Entry: DKNAALKAEIAALEAKIAALKAEIAALEG [4H3625-AA]
Return: n

Enquiry: Is interaction score strictly under -0.9 for the entry DENAALEAEIAALEAKIAALKAENAALKG [4H1068-AA] ?
Return: n

Enquiry: hey, is interaction score for DKNAALEAKIAALKAENAALEAEIAALEG [4H3409-AA] lower than -0.9 or not?
Return: y

Enquiry: Confirm or reject: interaction score of DKIAALKAKIAALEAKNAALKAEIAALEG [4H2873-AA] lies strictly below -0.9
Return: y

Enquiry: # TODO verify interaction score < -0.9 strictly for this binder: DEIAALEAEIAALKAKNAALKAEIAALEG [4H121-AA]
Return: n

Enquiry: Dear reviewer, please state whether DKIAALKAEIAALKAENAALEAKIAALKG [4H2646-AA] has interaction score strictly beneath -0.9.
Return: y

Enquiry: hey, is interaction score for DKIAALKAENAALKAEIAALEAKIAALKG [4H2758-AA] lower than -0.9 or not?
Return: y

Enquiry: Strictly below -0.9 in interaction score? DKIAALEAKNAALKAEIAALKAKNAALKG [4H2512-AA]
Return: y

Enquiry: # strict comparison: is reported interaction score < -0.9? input = DKIAALKAENAALEAENAALEAEIAALEG [4H2705-AA]
Return: y

Enquiry: Does the reported interaction score of the following binder sit strictly below -0.9? DENAALKAKNAALKAEIAALEAEIAALEG [4H1985-AA]
Return: n

Enquiry: Take the binder DEIAALEAKIAALEAENAALEAKIAALKG [4H278-AA] and say whether its interaction score is less than -0.9.
Return: n

Enquiry: Just wondering, is interaction score of DENAALKAENAALEAKIAALKAKIAALKG [4H1710-AA] below -0.9?
Return: n

Enquiry: Is interaction score strictly under -0.9 for the entry DKIAALKAEIAALKAKNAALKAKNAALEG [4H2687-AA] ?
Return: y

These data points were gathered from paper PMC10397247.
